STUDY_SYSTEM: human D2R/β-arrestin (Homo sapiens (Human), UniProt P14416)
Sequence (P14416 whole entry): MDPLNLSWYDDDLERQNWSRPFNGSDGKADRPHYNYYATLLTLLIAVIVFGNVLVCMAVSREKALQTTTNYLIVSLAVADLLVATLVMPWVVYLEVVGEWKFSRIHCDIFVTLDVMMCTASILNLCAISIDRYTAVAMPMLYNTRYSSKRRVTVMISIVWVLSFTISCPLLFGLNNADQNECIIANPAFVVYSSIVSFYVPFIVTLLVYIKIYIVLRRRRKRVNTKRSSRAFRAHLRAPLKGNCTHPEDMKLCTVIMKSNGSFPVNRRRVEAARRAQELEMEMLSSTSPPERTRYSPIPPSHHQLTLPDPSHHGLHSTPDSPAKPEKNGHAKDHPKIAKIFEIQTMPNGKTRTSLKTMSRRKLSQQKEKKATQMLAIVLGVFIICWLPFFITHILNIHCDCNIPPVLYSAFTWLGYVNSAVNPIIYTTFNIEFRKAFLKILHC
ASSAY_INFO: Gi/cAMP agonist assay (Lance Ultra cAMP, forskolin)
Assay type: cell-based
TEST_CONDITIONS: CHO-K1 cells expressing human D2R/β-arrestin; agonist mode, 2.5 μM forskolin
MEASURED_METRIC: EC50

Prompt: Report measured EC50; entry is CC1(Oc2ccc(Cl)cc2)CCN(CCOc2ccc(Cl)cc2)C1 (stereo not shown)
Response: < 100 nM

Prompt: Report measured EC50; entry is CC(C)c1ccccc1OCCN1CCC(C)(Oc2ccccc2)CC1
Response: > 30000 nM

Prompt: Report measured EC50; entry is Cc1ccccc1OC1(C)CCN(CCOc2ccccc2)C1 (stereo not shown)
Response: < 100 nM

Prompt: Report measured EC50; entry is FC(F)(F)c1ccccc1OCCN1CCC2(CC1)CC2c1ccc(Cl)cc1 (stereo not shown) [Compound 216]
Response: > 30000 nM

Prompt: Report measured EC50; entry is CC1(Oc2cccc(C(F)(F)F)c2)CCCN(CCOc2ccccc2)C1 (stereo not shown)
Response: > 30000 nM

Prompt: Report measured EC50; entry is CC1(Oc2ccc(Cl)cc2)CCN(CCOc2ccc3c(c2)NC(=O)CC3)CC1
Response: 1000 to 10000 nM

Prompt: Report measured EC50; entry is CC1(Oc2cccc([N+](=O)[O-])c2)CCN(CCOc2ccccc2)C1 (stereo not shown)
Response: 100 to 1000 nM

Prompt: Report measured EC50; entry is CC(=O)NC1(C)CCN(C[C@H]2COc3ccc(Br)cc3O2)CC1
Response: > 30000 nM

Prompt: Report measured EC50; entry is CC1(Oc2ccccc2)CCN(CCOc2cc(F)ccc2C(F)(F)F)CC1
Response: < 100 nM

Prompt: Report measured EC50; entry is CC1(Oc2ccccn2)CCN(CCOc2ccccc2C(F)(F)F)CC1
Response: < 100 nM

Prompt: Report measured EC50; entry is OC1(Cc2ccccc2F)CCN(CCOc2ccccc2)C1 (stereo not shown) [Compound 300, reference compound]
Response: 100 to 1000 nM

Prompt: Report measured EC50; entry is CN(c1ccccc1)C1(C)CCN(CCOc2ccccc2C(F)(F)F)CC1
Response: 100 to 1000 nM

Prompt: Report measured EC50; entry is FC(F)(F)c1ccccc1OCCN1CCC(=Cc2ccccc2)CC1
Response: > 30000 nM

Prompt: Report measured EC50; entry is CC1(Oc2ccc(Cl)cc2)CCN(CCOc2ccccc2F)C1 (stereo not shown)
Response: < 100 nM

Prompt: Report measured EC50; entry is CN(C)c1ccccc1OCCN1CCC(C)(Oc2ccccc2)CC1
Response: > 30000 nM

Prompt: Report measured EC50; entry is CNC(=O)C1(C)CCN(CCOc2ccccc2)CC1
Response: 100 to 1000 nM

Prompt: Report measured EC50; entry is OC(c1ccccc1)C1(O)CCN(CCOc2ccccc2C(F)(F)F)CC1 (stereo not shown)
Response: > 30000 nM

Prompt: Report measured EC50; entry is CC1(C(=O)Nc2ccccc2)CCN(CCOc2ccccc2F)CC1
Response: 100 to 1000 nM

Prompt: Report measured EC50; entry is OC1(c2ccccc2)CCN(CCOc2ccccc2)C1 (stereo not shown)
Response: 100 to 1000 nM
